# target or test system: Full-length human CRM1 (HsCRM1), O14980
# Sequence (O14980 whole entry): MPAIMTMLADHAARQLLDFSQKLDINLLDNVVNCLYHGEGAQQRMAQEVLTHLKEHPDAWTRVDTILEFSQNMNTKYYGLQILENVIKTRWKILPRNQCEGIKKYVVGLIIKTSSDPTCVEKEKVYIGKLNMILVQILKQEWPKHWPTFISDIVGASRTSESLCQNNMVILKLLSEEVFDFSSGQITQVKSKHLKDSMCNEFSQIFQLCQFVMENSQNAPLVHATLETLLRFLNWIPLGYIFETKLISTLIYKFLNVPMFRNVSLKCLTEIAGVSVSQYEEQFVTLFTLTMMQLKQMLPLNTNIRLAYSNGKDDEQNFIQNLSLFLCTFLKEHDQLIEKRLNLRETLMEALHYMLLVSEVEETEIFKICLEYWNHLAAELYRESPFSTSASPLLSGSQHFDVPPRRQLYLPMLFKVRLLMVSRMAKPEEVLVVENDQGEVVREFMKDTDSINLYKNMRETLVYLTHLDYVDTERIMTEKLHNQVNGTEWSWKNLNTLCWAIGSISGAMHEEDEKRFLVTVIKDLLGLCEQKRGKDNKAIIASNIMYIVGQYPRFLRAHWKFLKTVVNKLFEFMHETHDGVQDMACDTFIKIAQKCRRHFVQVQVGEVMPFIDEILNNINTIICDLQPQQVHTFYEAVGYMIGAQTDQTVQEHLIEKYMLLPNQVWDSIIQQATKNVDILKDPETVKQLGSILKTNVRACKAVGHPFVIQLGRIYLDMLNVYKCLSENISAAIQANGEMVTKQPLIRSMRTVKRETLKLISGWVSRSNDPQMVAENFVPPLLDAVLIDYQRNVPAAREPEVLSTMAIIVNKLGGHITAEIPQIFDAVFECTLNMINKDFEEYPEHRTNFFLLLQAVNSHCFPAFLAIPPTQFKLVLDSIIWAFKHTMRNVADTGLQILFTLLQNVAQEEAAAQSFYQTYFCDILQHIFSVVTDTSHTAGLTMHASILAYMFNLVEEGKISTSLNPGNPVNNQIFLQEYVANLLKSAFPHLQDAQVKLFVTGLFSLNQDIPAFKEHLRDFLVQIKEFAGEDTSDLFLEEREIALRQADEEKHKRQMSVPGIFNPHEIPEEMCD
# assay notes: GST pull-down, SDS/PAGE band intensity
# measurement setup: chain shown with the change; excess ScRanGTP; triplicate experiments; parent: est. 100; read off a plot
measurement label: percent of parent

Examples with their reported percent of parent follow.
[[record]]
binder = "GKIEELAQNFETMEISR [GST-hRio2NES-R F13I]"
measurement_label = "percent of parent"
observed_measurement = "150%"

[[record]]
binder = "GKIEELAQNFETMEVSR [GST-hRio2NES-R F13V]"
measurement_label = "percent of parent"
observed_measurement = "140%"

[[record]]
binder = "GKIEELAQNFETLEFSR [GST-hRio2NES-R M11L]"
measurement_label = "percent of parent"
observed_measurement = "105%"


stdin: Answer with reported percent of parent of GKIEELAQNFETMELSR [GST-hRio2NES-R F13L]
stdout: 130%
